Molecular target: Procathepsin L (Homo sapiens)
Assay: Evaluated for second-order rate constants for the inactivation of mammalian lysosomal cathepsin L.
Measured attribute: ki/Ki (M⁻¹ s⁻¹)

>>> quantitative_readout("CCOC(=O)[C@@H]1[C@@H](C(=O)OCC)N1C(=O)[C@H](C)NC(=O)[C@@H](Cc1ccccc1)NC(=O)OC(C)(C)C")
7.82
>>> quantitative_readout("CCOC(=O)C1NC1C(=O)N[C@@H](CC(C)C)C(=O)OCc1ccccc1 (stereo not given in full)")
52.2
>>> quantitative_readout("CCOC(=O)C1C(C(=O)O)N1C(=O)[C@H](Cc1ccccc1)NC(=O)OC(C)(C)C (stereo not given in full)")
3.13

a = CCOC(=O)C1C(C(=O)OCc2ccccc2)N1C(=O)CNC(=O)[C@H](CC(C)C)NC(=O)OC(C)(C)C (stereo not given in full)
b = CCOC(=O)[C@H]1[C@H](C(=O)N[C@@H](CC(C)C)C(=O)N2CCCC2C(=O)OCc2ccccc2)N1C(=O)[C@H](Cc1ccccc1)NC(=O)OC(C)(C)C (stereo not given in full)
Query: Lower value for measured ki/Ki? Options: a , b Refer to your chosen entry by its label in the reply.
Result: a
